- Assay remarks: Cytotoxicity against human BM-MSC cells assessed as cell viability at 100 uM incubated for 72 hrs by WST-8 assay
- Format: cell-based, BMMSC
- Setup conditions: read-out: Activity
Quantity measured: viability at 72 h, 100 µM

[[record]]
compound = "C=CC(c1ccc(O)c(OC)c1)c1c(O)cc(O)c2c(=O)cc(-c3ccccc3)oc12 (stereo unspecified)"
reading = "57%"


* * *

- Tested on: A549
- Assay remarks: Cytotoxicity against human A549 cells assessed as reduction in cell viability incubated for 72 hrs by WST-8 assay
- Type: functional, cell-based
- Setup conditions: A549, 72 h
Quantity measured: IC50 (µM)

[[record]]
molecule = "C=CC(c1ccc(O)c(OC)c1)c1c(O)cc(O)c2c(=O)cc(-c3ccccc3)oc12 (stereo unspecified)"
reading = 55.5

